Please provide measured inhibition of growth at 50 µM for the entries that follow.
- Test system: A549
- method: Growth inhibition of human A549 cells assessed as dead cells at 50 uM after 48 hrs by sulforhodamine-B assay relative to control
- Type: functional
- experimental.conditions: A549, 48 h, read-out: GI
# number then unit; no other words

Use these answered entries as a reference point.
What measured inhibition of growth at 50 µM goes with C[C@H]1[C@H](C)CC[C@]2(C(=O)OCc3cn(-c4ccccc4C(F)(F)F)nn3)CC[C@]3(C)C(=CC[C@@H]4[C@@]5(C)CCC(=O)C(C)(C)[C@@H]5CC[C@]43C)[C@H]12 ?
46%

What measured inhibition of growth at 50 µM goes with C[C@H]1[C@H](C)CC[C@]2(C(=O)OCc3cn(-c4ccccc4)nn3)CC[C@]3(C)C(=CC[C@@H]4[C@@]5(C)CCC(=O)C(C)(C)[C@@H]5CC[C@]43C)[C@H]12 ?
64%

What measured inhibition of growth at 50 µM goes with C[C@H]1[C@H](C)CC[C@]2(C(=O)OCc3cn(-c4ccc(C(F)(F)F)cc4)nn3)CC[C@]3(C)C(=CC[C@@H]4[C@@]5(C)CCC(=O)C(C)(C)[C@@H]5CC[C@]43C)[C@H]12 ?
30%

What measured inhibition of growth at 50 µM goes with C[C@H]1[C@H](C)CC[C@]2(C(=O)OCc3cn(-c4ccc(F)cc4F)nn3)CC[C@]3(C)C(=CC[C@@H]4[C@@]5(C)CCC(=O)C(C)(C)[C@@H]5CC[C@]43C)[C@H]12 ?
64%

What measured inhibition of growth at 50 µM goes with COc1ccccc1-n1cc(COC(=O)[C@]23CC[C@@H](C)[C@H](C)[C@H]2C2=CC[C@@H]4[C@@]5(C)CCC(=O)C(C)(C)[C@@H]5CC[C@@]4(C)[C@]2(C)CC3)nn1 ?
94%

What measured inhibition of growth at 50 µM goes with Cc1ccc(-n2cc(COC(=O)[C@]34CC[C@@H](C)[C@H](C)[C@H]3C3=CC[C@@H]5[C@@]6(C)CCC(=O)C(C)(C)[C@@H]6CC[C@@]5(C)[C@]3(C)CC4)nn2)cc1C ?
93%

What measured inhibition of growth at 50 µM goes with C[C@H]1[C@H](C)CC[C@]2(C(=O)OCc3cn(-c4cccc5ccccc45)nn3)CC[C@]3(C)C(=CC[C@@H]4[C@@]5(C)CCC(=O)C(C)(C)[C@@H]5CC[C@]43C)[C@H]12 ?
50%

What measured inhibition of growth at 50 µM goes with C[C@H]1[C@H](C)CC[C@]2(C(=O)OCc3cn(-c4ccccc4Br)nn3)CC[C@]3(C)C(=CC[C@@H]4[C@@]5(C)CCC(=O)C(C)(C)[C@@H]5CC[C@]43C)[C@H]12 ?
99%

// for each compound in input: emit inhibition of growth at 50 µM
1. C[C@H]1[C@H](C)CC[C@]2(C(=O)OCc3cn(-c4ccccc4Cl)nn3)CC[C@]3(C)C(=CC[C@@H]4[C@@]5(C)CCC(=O)C(C)(C)[C@@H]5CC[C@]43C)[C@H]12
2. C[C@H]1[C@H](C)CC[C@]2(C(=O)OCc3cn(-c4ccc(CC#N)cc4)nn3)CC[C@]3(C)C(=CC[C@@H]4[C@@]5(C)CCC(=O)C(C)(C)[C@@H]5CC[C@]43C)[C@H]12
3. C[C@H]1[C@H](C)CC[C@]2(C(=O)OCc3cn(-c4ccc(I)cc4)nn3)CC[C@]3(C)C(=CC[C@@H]4[C@@]5(C)CCC(=O)C(C)(C)[C@@H]5CC[C@]43C)[C@H]12
4. C[C@H]1[C@H](C)CC[C@]2(C(=O)OCc3cn(-c4cccc(Br)c4)nn3)CC[C@]3(C)C(=CC[C@@H]4[C@@]5(C)CCC(=O)C(C)(C)[C@@H]5CC[C@]43C)[C@H]12
5. C[C@H]1[C@H](C)CC[C@]2(C(=O)OCc3cn(-c4ccc(Br)cc4)nn3)CC[C@]3(C)C(=CC[C@@H]4[C@@]5(C)CCC(=O)C(C)(C)[C@@H]5CC[C@]43C)[C@H]12
6. C[C@H]1[C@H](C)CC[C@]2(C(=O)OCc3cn(-c4ccccc4F)nn3)CC[C@]3(C)C(=CC[C@@H]4[C@@]5(C)CCC(=O)C(C)(C)[C@@H]5CC[C@]43C)[C@H]12

1: 91%; 2: 26%; 3: 2%; 4: 16%; 5: 63%; 6: 18%

// for each compound in input: emit inhibition of growth at 50 µM
1. C[C@H]1[C@H](C)CC[C@]2(C(=O)OCc3cn(-c4ccc(F)cc4)nn3)CC[C@]3(C)C(=CC[C@@H]4[C@@]5(C)CCC(=O)C(C)(C)[C@@H]5CC[C@]43C)[C@H]12
2. C[C@H]1[C@H](C)CC[C@]2(C(=O)OCc3cn(-c4ccccc4[N+](=O)[O-])nn3)CC[C@]3(C)C(=CC[C@@H]4[C@@]5(C)CCC(=O)C(C)(C)[C@@H]5CC[C@]43C)[C@H]12
3. C[C@H]1[C@H](C)CC[C@]2(C(=O)OCc3cn(-c4ccccc4I)nn3)CC[C@]3(C)C(=CC[C@@H]4[C@@]5(C)CCC(=O)C(C)(C)[C@@H]5CC[C@]43C)[C@H]12
4. C#CCOC(=O)[C@]12CC[C@@H](C)[C@H](C)[C@H]1C1=CC[C@@H]3[C@@]4(C)CCC(=O)C(C)(C)[C@@H]4CC[C@@]3(C)[C@]1(C)CC2
5. C[C@H]1[C@H](C)CC[C@]2(C(=O)OCc3cn(-c4ccc(Cl)cc4)nn3)CC[C@]3(C)C(=CC[C@@H]4[C@@]5(C)CCC(=O)C(C)(C)[C@@H]5CC[C@]43C)[C@H]12
6. C[C@H]1[C@H](C)CC[C@]2(C(=O)O)CC[C@]3(C)C(=CC[C@@H]4[C@@]5(C)CC[C@H](O)C(C)(C)[C@@H]5CC[C@]43C)[C@H]12

1. 3%
2. 39%
3. 67%
4. 78%
5. 26%
6. 61%

* * *

Please provide measured IC50 for the entries that follow.
- Test system: THP-1
- method: Growth inhibition of human THP1 cells after 48 hrs by sulforhodamine-B assay
- Assay type: functional, cell-based
- experimental.conditions: THP-1, 48 h
One number for each entry, in µM.

What measured IC50 goes with C[C@H]1[C@H](C)CC[C@]2(C(=O)OCc3cn(-c4ccccc4I)nn3)CC[C@]3(C)C(=CC[C@@H]4[C@@]5(C)CCC(=O)C(C)(C)[C@@H]5CC[C@]43C)[C@H]12 ?
9.4

// for each molecule in input: emit IC50
1. Cc1ccc(-n2cc(COC(=O)[C@]34CC[C@@H](C)[C@H](C)[C@H]3C3=CC[C@@H]5[C@@]6(C)CCC(=O)C(C)(C)[C@@H]6CC[C@@]5(C)[C@]3(C)CC4)nn2)cc1C
2. C[C@H]1[C@H](C)CC[C@]2(C(=O)OCc3cn(-c4ccccc4)nn3)CC[C@]3(C)C(=CC[C@@H]4[C@@]5(C)CCC(=O)C(C)(C)[C@@H]5CC[C@]43C)[C@H]12

[0.9, 11]

* * *

- method: Growth inhibition of human FR2 cells assessed as dead cells at 10 uM after 48 hrs by sulforhodamine-B assay relative to control
- Format: cell-based
- experimental.conditions: read-out: GI
The label depends only on inhibition at 48 h, 10 µM: 1.0 if it is at least 5%, 0.0 if it is smaller.

Worked cases, answers included:
Item C[C@H]1[C@H](C)CC[C@]2(C(=O)OCc3cn(-c4ccc(F)cc4F)nn3)CC[C@]3(C)C(=CC[C@@H]4[C@@]5(C)CCC(=O)C(C)(C)[C@@H]5CC[C@]43C)[C@H]12 with inhibition at 48 h, 10 µM of 5% or above?
0.0

Item C[C@H]1[C@H](C)CC[C@]2(C(=O)OCc3cn(-c4ccccc4I)nn3)CC[C@]3(C)C(=CC[C@@H]4[C@@]5(C)CCC(=O)C(C)(C)[C@@H]5CC[C@]43C)[C@H]12 with inhibition at 48 h, 10 µM of 5% or above?
1.0

Item C[C@H]1[C@H](C)CC[C@]2(C(=O)OCc3cn(-c4ccccc4Br)nn3)CC[C@]3(C)C(=CC[C@@H]4[C@@]5(C)CCC(=O)C(C)(C)[C@@H]5CC[C@]43C)[C@H]12 with inhibition at 48 h, 10 µM of 5% or above?
0.0

Item C[C@H]1[C@H](C)CC[C@]2(C(=O)O)CC[C@]3(C)C(=CC[C@@H]4[C@@]5(C)CC[C@H](O)C(C)(C)[C@@H]5CC[C@]43C)[C@H]12 [URSOLIC ACID] with inhibition at 48 h, 10 µM of 5% or above?
1.0

Next:
Item C[C@H]1[C@H](C)CC[C@]2(C(=O)OCc3cn(-c4ccc(Br)cc4)nn3)CC[C@]3(C)C(=CC[C@@H]4[C@@]5(C)CCC(=O)C(C)(C)[C@@H]5CC[C@]43C)[C@H]12 with inhibition at 48 h, 10 µM of 5% or above?
1.0

Item C[C@H]1[C@H](C)CC[C@]2(C(=O)OCc3cn(-c4ccccc4Cl)nn3)CC[C@]3(C)C(=CC[C@@H]4[C@@]5(C)CCC(=O)C(C)(C)[C@@H]5CC[C@]43C)[C@H]12 with inhibition at 48 h, 10 µM of 5% or above?
1.0
